Numbers sourced from the supplement of paper PMC10949913.

- Tested on: CU-ACC1
- Protocol summary: AC50 viability; higher = less potent
- Condition set: 48 h
Metric: AC50 viability (µM)
Report the value in µM with no unit label.

>  <Molecule>
COCCOC1=CN=C2\C=C/N([C@H](C)C3=NN=C4[N]3C=C(C=C4F)C5=C[N](C)N=C5)C(=O)C2=C1

>  <Observed result>
0.0118

$$$$

API: the following record is the query input.
### Prompt Provide one value: measured AC50 viability of O=C(CCCCCCC(=O)Nc1ccccc1)NO
### Response 2.95

====

- System: NCI-H295R
- Protocol summary: area under concentration-response curve (viability) (AUC (a.u.)); higher = less active
- Condition set: 48 h
Metric: area under concentration-response curve
Output: the number by itself.

Please review the following examples before continuing.
>  <Compound>
COC1=C(OC)C=C2CN(CCC3=CC=C(C=C3)[N]4N=NC(=N4)C5=CC(=C(OC)C=C5NC(=O)\C6=C\C(=O)C7=CC=CC=C7O6)OC)CCC2=C1

>  <Target entity>
NCI-H295R

>  <Metric>
area under concentration-response curve

>  <Observed result>
688

$$$$
>  <Compound>
CC[C@H](C)C(=O)O[C@H]1CC\C=C2\C=C/[C@H](C)[C@H](CC[C@@H]3C[C@@H](O)CC(=O)O3)[C@@H]12

>  <Target entity>
NCI-H295R

>  <Metric>
area under concentration-response curve

>  <Observed result>
484

$$$$
>  <Compound>
CCc1cncnc1N1CCN(Cc2nc3cc(C(F)(F)F)ccc3[nH]2)CC1

>  <Target entity>
NCI-H295R

>  <Metric>
area under concentration-response curve

>  <Observed result>
502

$$$$
>  <Compound>
O=C(Nc1nc2cccc(-c3ccc(CN4CC[S+](=O)([O-])CC4)cc3)n2n1)C1CC1

>  <Target entity>
NCI-H295R

>  <Metric>
area under concentration-response curve

>  <Observed result>
535

$$$$
>  <Compound>
CCC1(c2ccccc2)C(=O)NCNC1=O

>  <Target entity>
NCI-H295R

>  <Metric>
area under concentration-response curve

>  <Observed result>
521

$$$$

### Prompt Provide one value: measured area under concentration-response curve of Cc1cccc(Nc2nc(-c3ccncc3)cs2)c1
### Response 531

### Prompt Provide one value: measured area under concentration-response curve of Cn1c(Nc2ccc(C(F)(F)F)cc2)nc2cc(Oc3ccnc(-c4nc(C(F)(F)F)c[nH]4)c3)ccc21
### Response 469

### Prompt Provide one value: measured area under concentration-response curve of Cc1ccccc1C(C(=O)NC1CCCCC1)N(C(=O)Cn1ccnc1C)c1cccc(F)c1 (centres undefined)
### Response 539

### Prompt Provide one value: measured area under concentration-response curve of CCO[C@@H]1OC(=O)C[C@@H]1NC(=O)[C@@H]1CCCN2C(=O)CC[C@H](NC(=O)c3nccc4ccccc34)C(=O)N12
### Response 553

### Prompt Provide one value: measured area under concentration-response curve of CC(C)c1ccccc1Cc1cc(C(=O)Nc2ccc([S+](=O)([O-])c3ccccc3C(C)(C)C)cc2)c(O)c(O)c1O
### Response 205

### Prompt Provide one value: measured area under concentration-response curve of CC(=O)O[C@@]12CO[C@@H]1C[C@H](O)[C@@]1(C)C(=O)[C@H](O)C3=C(C)[C@@H](OC(=O)[C@H](O)[C@@H](NC(=O)OC(C)(C)C)c4ccccc4)C[C@@](O)([C@@H](OC(=O)c4ccccc4)[C@H]21)C3(C)C
### Response 270

### Prompt Provide one value: measured area under concentration-response curve of CC[C@H]1OC(=O)[C@H](C)[C@@H](O[C@H]2C[C@@](C)(OC)[C@@H](O)[C@H](C)O2)[C@H](C)[C@@H](O[C@@H]2O[C@H](C)C[C@H](N(C)C)[C@H]2O)[C@](C)(O)C[C@@H](C)C(=O)[C@H](C)[C@@H](O)[C@]1(C)O
### Response 594

### Prompt Provide one value: measured area under concentration-response curve of COc1ccc2[nH]c([S+]([O-])Cc3ncc(C)c(OC)c3C)nc2c1 (centres undefined)
### Response 576

### Prompt Provide one value: measured area under concentration-response curve of CC[C@H](C)C(=O)O[C@H]1C[C@@H](C)\C=C2\C=C/[C@H](C)[C@H](CC[C@@H]3C[C@@H](O)CC(=O)O3)[C@@H]12
### Response 576
